- Tested on: K. pneumoniae NVT1001 strains with carbapenemase plasmids
- MEASUREMENT_NOTES: Etest MIC of β-lactams, OmpK35/36 loss, ΔramR and/or carbapenemase (Table 9)
- Format: cell-based, Klebsiella pneumoniae
- EXPERIMENTAL_PARAMETERS: Klebsiella pneumoniae, IMP-8 on pACYC177; ΔramRΔ35 (ΔramRΔompK35 mutant)
METRIC_NAME: MIC

Some solved entries appear below for comparison.
- C[C@@H](O)[C@H]1C(=O)N2C(C(=O)O)=C(S[C@@H]3CN[C@H](C(=O)N(C)C)C3)[C@H](C)[C@H]12 [Meropenem]: 2 µg/mL
- CO/N=C(\C(=O)N[C@@H]1C(=O)N2C(C(=O)O)=C(COC(C)=O)CS[C@H]12)c1csc(N)n1 [Cefotaxime]: 128 µg/mL
- CC(C)(O/N=C(\C(=O)N[C@@H]1C(=O)N2C(C(=O)[O-])=C(C[n+]3ccccc3)CS[C@H]12)c1csc(N)n1)C(=O)O [Ceftazidime]: > 256 µg/mL
- C[C@H]1[C@H](NC(=O)/C(=N\OC(C)(C)C(=O)O)c2csc(N)n2)C(=O)N1S(=O)(=O)O [Aztreonam]: 0.5 µg/mL

Task: Need MIC of CO/N=C(\C(=O)N[C@@H]1C(=O)N2C(C(=O)[O-])=C(C[N+]3(C)CCCC3)CS[C@H]12)c1csc(N)n1 [Cefepime] , thanks.
Result: 64 µg/mL

Task: Need MIC of CO[C@@]1(NC(=O)Cc2cccs2)C(=O)N2C(C(=O)O)=C(COC(N)=O)CS[C@@H]21 [Cefoxitin] , thanks.
Result: > 256 µg/mL

Task: Need MIC of CC(=O)OCC1=C(C(=O)O)N2C(=O)[C@@H](NC(=O)Cc3cccs3)[C@H]2SC1 [Cephalothin] , thanks.
Result: > 256 µg/mL

Task: Need MIC of CO/N=C(\C(=O)N[C@@H]1C(=O)N2C(C(=O)O)=C(COC(N)=O)CS[C@H]12)c1ccco1 [Cefuroxime] , thanks.
Result: > 256 µg/mL

----------
Collected MIC values appear next to each entry.
- System: K. pneumoniae NVT1001 strains with ESBL or AmpC β-lactamase plasmids
- MEASUREMENT_NOTES: Etest MIC of β-lactams, OmpK35/36 loss, ΔramR and/or extended-spectrum β-lactamase and AmpC β-lactamase (Table 8)
- Type: cell-based, Klebsiella pneumoniae
- EXPERIMENTAL_PARAMETERS: Klebsiella pneumoniae, CTX-M-14 on pACYC177; Δ35/36 (ΔompK35/36 mutant)

Some solved entries appear below for comparison.
* CC(=O)OCC1=C(C(=O)O)N2C(=O)[C@@H](NC(=O)Cc3cccs3)[C@H]2SC1 | > 256 µg/mL
* CCO/N=C(\C(=O)N[C@@H]1C(=O)N2C(C(=O)[O-])=C(Sc3nc(-c4cc[n+](C)cc4)cs3)CS[C@H]12)c1nsc(N)n1 | > 256 µg/mL
* C[C@@H](O)[C@H]1C(=O)N2C(C(=O)O)=C(S[C@@H]3CN[C@H](C(=O)Nc4cccc(C(=O)O)c4)C3)[C@H](C)[C@H]12 | 8 µg/mL
* CO/N=C(\C(=O)N[C@@H]1C(=O)N2C(C(=O)O)=C(COC(N)=O)CS[C@H]12)c1ccco1 | > 256 µg/mL
* CC(C)(O/N=C(\C(=O)N[C@@H]1C(=O)N2C(C(=O)[O-])=C(C[n+]3ccccc3)CS[C@H]12)c1csc(N)n1)C(=O)O | 8 µg/mL

Task: Need MIC of C[C@@H](O)[C@H]1C(=O)N2C(C(=O)O)=C(SCCN=CN)C[C@H]12 , thanks.
Result: 1 µg/mL

Task: Need MIC of CO[C@@]1(NC(=O)Cc2cccs2)C(=O)N2C(C(=O)O)=C(COC(N)=O)CS[C@@H]21 , thanks.
Result: 64 µg/mL

Task: Need MIC of C[C@@H](O)[C@H]1C(=O)N2C(C(=O)O)=C(S[C@@H]3CN[C@H](CNS(N)(=O)=O)C3)[C@H](C)[C@H]12 , thanks.
Result: 1 µg/mL

Task: Need MIC of C[C@@H](O)[C@H]1C(=O)N2C(C(=O)O)=C(S[C@@H]3CN[C@H](C(=O)N(C)C)C3)[C@H](C)[C@H]12 , thanks.
Result: 2 µg/mL

Task: Need MIC of C[C@H]1[C@H](NC(=O)/C(=N\OC(C)(C)C(=O)O)c2csc(N)n2)C(=O)N1S(=O)(=O)O , thanks.
Result: 32 µg/mL

Task: Need MIC of CO/N=C(\C(=O)N[C@@H]1C(=O)N2C(C(=O)O)=C(COC(C)=O)CS[C@H]12)c1csc(N)n1 , thanks.
Result: > 256 µg/mL

----------
- Test system: K. pneumoniae NVT1001 gyrA/parC and gyrA/parC/ramR mutants and revertants
- MEASUREMENT_NOTES: Etest MIC of quinolones, gyrA/parC and gyrA/parC/ramR mutants and their revertants (Table 11)
- Type: cell-based
- EXPERIMENTAL_PARAMETERS: Klebsiella pneumoniae, ΔramR/S83I/D87N/S80I:: ramR/I83S/N87D revertant
METRIC_NAME: MIC (µg/mL)
Provide the reading as a plain figure in µg/mL.

Some solved entries appear below for comparison.
* CCn1cc(C(=O)O)c(=O)c2cc(F)c(N3CCNCC3)cc21 [Norfloxacin, norfloxacin] | 0.25
* C[C@H]1COc2c(N3CCN(C)CC3)c(F)cc3c(=O)c(C(=O)O)cn1c23 [Levofloxacin, levofloxacin] | 0.06
* COc1c(N2C[C@@H]3CCCN[C@@H]3C2)c(F)cc2c(=O)c(C(=O)O)cn(C3CC3)c12 [Moxifloxacin, moxifloxacin] | 0.25
* CCn1cc(C(=O)O)c(=O)c2ccc(C)nc21 [Nalidixic acid, nalidixic acid] | 8

Task: Need MIC of CC1COc2c(N3CCN(C)CC3)c(F)cc3c(=O)c(C(=O)O)cn1c23 (centres unmarked) [Ofloxacin, ofloxacin] , thanks.
Result: 0.25

----------
Collected MIC values appear next to each entry.
- Test system: K. pneumoniae NVT1001 strains with aminoglycoside resistance plasmids
- MEASUREMENT_NOTES: Etest MIC of aminoglycosides, aminoglycoside-modifying enzyme or 16S rRNA methylase (Table 13)
- Format: cell-based, Klebsiella pneumoniae
- EXPERIMENTAL_PARAMETERS: NVT1001 with ANT(3″)-Ia on pACYC184
Provide the reading as a plain figure in µg/mL.

Some solved entries appear below for comparison.
- NCC[C@H](O)C(=O)N[C@@H]1C[C@H](N)[C@@H](O[C@H]2O[C@H](CN)[C@@H](O)[C@H](O)[C@H]2O)[C@H](O)[C@H]1O[C@H]1O[C@H](CO)[C@@H](O)[C@H](N)[C@H]1O [AMK]: 2
- NC[C@@H]1O[C@@H](O[C@H]2[C@H](O)[C@@H](O[C@H]3O[C@H](CO)[C@@H](O)[C@H](N)[C@H]3O)[C@H](N)C[C@@H]2N)[C@@H](O)[C@H](O)[C@H]1O [KAN]: 2
- CCN[C@@H]1C[C@H](N)[C@@H](O[C@H]2OC(CN)=CC[C@H]2N)[C@H](O)[C@H]1O[C@H]1OC[C@](C)(O)[C@H](NC)[C@H]1O [NET]: 0.5

Task: Need MIC of CN[C@@H]1[C@H](O[C@H]2[C@H](O[C@H]3[C@H](O)[C@@H](O)[C@H](N=C(N)N)[C@@H](O)[C@@H]3N=C(N)N)O[C@@H](C)[C@]2(O)C=O)O[C@@H](CO)[C@H](O)[C@H]1O [STR] , thanks.
Result: 16

Task: Need MIC of NC[C@H]1O[C@H](O[C@H]2[C@H](O)[C@@H](O[C@H]3O[C@H](CO)[C@@H](O)[C@H](N)[C@H]3O)[C@H](N)C[C@@H]2N)[C@H](N)C[C@@H]1O [TOB] , thanks.
Result: 0.5

----------
- System: K. pneumoniae NVT1001 strains with carbapenemase plasmids
- MEASUREMENT_NOTES: Etest MIC of β-lactams, OmpK35/36 loss, ΔramR and/or carbapenemase (Table 9)
- Type: cell-based, Klebsiella pneumoniae
- EXPERIMENTAL_PARAMETERS: Klebsiella pneumoniae, VIM-1 on pACYC177; WT (NVT1001); read-out: MIC
METRIC_NAME: MIC (µg/mL)
Provide the reading as a plain figure in µg/mL.

Some solved entries appear below for comparison.
- C[C@@H](O)[C@H]1C(=O)N2C(C(=O)O)=C(SCCN=CN)C[C@H]12 [Imipenem]: 16
- C[C@@H](O)[C@H]1C(=O)N2C(C(=O)O)=C(S[C@@H]3CN[C@H](C(=O)N(C)C)C3)[C@H](C)[C@H]12 [Meropenem]: 16

Task: Need MIC of CO/N=C(\C(=O)N[C@@H]1C(=O)N2C(C(=O)[O-])=C(C[N+]3(C)CCCC3)CS[C@H]12)c1csc(N)n1 [Cefepime] , thanks.
Result: 128
